These entries and their values trace back to patent US12065443B2.

Target: SIK1 (Homo sapiens)
Construct: purchased Carna Biosciences 02-131
Sequence (P57059 whole entry): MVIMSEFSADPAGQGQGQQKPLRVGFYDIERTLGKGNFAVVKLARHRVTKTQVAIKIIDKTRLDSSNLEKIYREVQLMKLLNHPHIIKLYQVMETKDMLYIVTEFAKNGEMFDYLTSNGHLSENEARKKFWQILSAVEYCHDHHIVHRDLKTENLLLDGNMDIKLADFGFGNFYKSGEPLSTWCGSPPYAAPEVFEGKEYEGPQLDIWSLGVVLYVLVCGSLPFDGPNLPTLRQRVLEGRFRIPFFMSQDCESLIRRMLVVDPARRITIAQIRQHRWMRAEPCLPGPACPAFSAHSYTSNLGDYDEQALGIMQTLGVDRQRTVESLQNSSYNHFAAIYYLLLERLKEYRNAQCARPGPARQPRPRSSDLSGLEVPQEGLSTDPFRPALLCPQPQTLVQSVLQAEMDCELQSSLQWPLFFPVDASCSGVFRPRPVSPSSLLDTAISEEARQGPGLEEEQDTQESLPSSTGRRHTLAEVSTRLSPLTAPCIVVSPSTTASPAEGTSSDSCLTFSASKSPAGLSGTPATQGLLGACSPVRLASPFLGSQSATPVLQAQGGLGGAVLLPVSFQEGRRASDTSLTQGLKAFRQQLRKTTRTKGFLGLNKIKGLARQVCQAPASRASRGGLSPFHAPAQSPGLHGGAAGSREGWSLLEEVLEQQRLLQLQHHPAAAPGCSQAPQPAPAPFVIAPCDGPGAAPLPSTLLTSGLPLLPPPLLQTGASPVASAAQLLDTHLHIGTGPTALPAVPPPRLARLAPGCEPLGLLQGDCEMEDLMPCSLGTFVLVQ
Test: biochemical
Details: 33P radioactive SIK kinase assay, AMARA peptide, 10 μM ATP; read-out: SIK1 IC50
pIC50: −log10 of the molar value.
property.measured: pIC50

Request: What does the record list as pIC50 for COc1cc(-n2cnc3cc(-c4cnn(CCO)c4)ccc32)cc(OC)c1C(=O)NCC(F)(F)F ?
Result: 8.00 to 11.00

Request: Requested field: pIC50. Item: COc1cc(-n2cnc3cc(-c4c[nH]cn4)ccc32)cc(OC)c1C(=O)NCC(F)(F)F
Result: 7.00 to 8.00

Request: Can you look up the measured pIC50 of COc1cc(-n2cnc3cc(-c4cnn(C5CN(C)C5)c4)ccc32)cc(OC)c1C(=O)NCC(F)(F)F for me?
Result: 7.00 to 8.00

Request: Bench note: what pIC50 did COc1cc(-n2cnc3cc(-c4cnn(C)c4)ccc32)cc(OC)c1C(=O)N1CC2(COC2)C1 show?
Result: 6.30 to 7.00

Request: If you can, please state the reported pIC50 value of COc1cc(-n2cnc3cc(-c4cnn(C)c4)ccc32)cc(OC)c1C(=O)NC(C)C(F)F (stereo not drawn) .
Result: 7.00 to 8.00

Request: # lookup: pIC50 of COc1cc(-c2cnc3cc(-c4cnn(C(C)C(=O)OC(C)(C)C)c4)ccn23)cc(OC)c1C(=O)NCC(F)(F)F (stereo not drawn)
Result: 8.00 to 11.00

Request: Give the measured pIC50 of COc1cc(-n2cnc3cc(-c4cnn(C)c4)ccc32)cc(OC)c1C(=O)N1CC(N2CCOCC2)C1 .
Result: < 6.30

Request: // lookup pIC50 for COc1cc(-n2cnc3cc(-c4cnn(C)c4)ccc32)cc(OC)c1C(=O)N1CC(CO)C1
Result: 6.30 to 7.00

Request: Form field: reported pIC50 of COc1cc(-n2cnc3cc(-c4cnn(C)c4)ccc32)cc(OC)c1C(=O)N1CC(C)(O)C1
Result: 7.00 to 8.00

Request: Endpoint output: pIC50 of COc1cc(-n2cnc3cc(-c4ccc(N)nc4)ccc32)cc(OC)c1C(=O)NCC(F)(F)F . Value?
Result: 6.30 to 7.00

Request: Any idea what its pIC50 is? The molecule is COc1cc(-n2cnc3cc(-n4ccc(C)n4)ccc32)cc(OC)c1C(=O)NCC(F)(F)F
Result: 6.30 to 7.00

Request: Name the reported pIC50 value associated with the molecule COc1cc(-c2cnc3cc(-c4cnn(C)c4)ccn23)cc(OC)c1C(=O)N1CC(C(F)(F)F)C1
Result: 8.00 to 11.00

Request: For the molecule COc1cc(-n2cnc3cc(-c4cnn(C5COC5)c4)ccc32)cc(OC)c1C(=O)NCC(F)(F)F , what pIC50 is on record?
Result: 7.00 to 8.00

Request: Query: pIC50; subject: COc1cc(-c2cnc3cc(-c4cnn(C)c4)ccn23)cc(OC)c1C(=O)N[C@H](C)C(F)(F)F
Result: 8.00 to 11.00

Request: Can you look up the measured pIC50 of COc1cc(-n2cnc3cc(-c4cnn(CCN5CCOCC5)c4)ccc32)cc(OC(F)F)c1C(=O)NC1CC1 for me?
Result: 8.00 to 11.00
